Test system: E18 rat cortical neuron-glia co-culture
Procedure details: fiber score / MBP score (myelination specific beyond OL differentiation) (ratio); higher = more myelination-specific MBP alignment
Measurement context: 5 µM; treatment time: 8 days (DIV5-DIV13)
Satisfied means recorded fiber score / MBP score is 0.9 or above; Not satisfied means it is below 0.9.

> print(dat)
                                    compound  classification
 1  C[C@]12CCC(=O)C=C1CC[C@@H]1[C@@H]2CC[C@@]2(C)[C@H]1CC[C@]2(O)C(=O)CO [Cortodoxone]   Not satisfied
 2  CCOC(=O)[C@H](CCc1ccccc1)N[C@@H](C)C(=O)N1Cc2ccccc2C[C@H]1C(=O)O [Quinapril]   Not satisfied
 3            C[n+]1ccccc1C=NO [Pralidoxime]       Satisfied
 4  Nc1nnc(-c2cccc(Cl)c2Cl)c(N)n1 [Lamotrigine]   Not satisfied
 5  COc1cc(C(=O)NS(=O)(=O)c2ccccc2C)ccc1Cc1cn(C)c2ccc(NC(=O)OC3CCCC3)cc12 [Zafirlukast]   Not satisfied
 6  COc1ccc2[nH]c([S+]([O-])Cc3ncc(C)c(OC)c3C)nc2c1 (configuration not stated) [Omeprazole]   Not satisfied
 7  OC[C@H]1O[C@@H](Oc2cc(O)cc(/C=C/c3ccc(O)cc3)c2)[C@H](O)[C@@H](O)[C@@H]1O [Polydatin]   Not satisfied
 8  COc1cc(C)c(/C=C/C(C)=C/C=C/C(C)=C/C(=O)O)c(C)c1C [Acitretin]       Satisfied
 9  COc1cc(CNC(=O)CCCC/C=C\C(C)C)ccc1O [Zucapsaicin]       Satisfied
10  CCN(CC)CCOC(=O)C1(C2CCCCC2)CCCCC1 [Dicyclomine]   Not satisfied
11  NS(=O)(=O)c1cc2c(cc1C(F)(F)F)NC(Cc1ccccc1)NS2(=O)=O (configuration not stated) [Bendroflumethiazide]   Not satisfied
12  CN(C)CCC=C1c2ccccc2CCc2ccccc21 [Amitriptyline]       Satisfied
13     Clc1ccc2nsnc2c1NC1=NCCN1 [Tizanidine]   Not satisfied
14  C[C@@H](c1ncncc1F)[C@](O)(Cn1cncn1)c1ccc(F)cc1F [Voriconazole]   Not satisfied
15  CC(C)(C(=O)O)c1ccc(C(O)CCCN2CCC(C(O)(c3ccccc3)c3ccccc3)CC2)cc1 (configuration not stated) [Fexofenadine]   Not satisfied
16   NC(=O)OCC(COC(N)=O)c1ccccc1 [Felbamate]   Not satisfied
17  CN(C)CCCN1c2ccccc2Sc2ccc(Cl)cc21 [Chlorpromazine]       Satisfied
18  CC(=O)OCC(CCn1cnc2cnc(N)nc21)COC(C)=O [Famciclovir]       Satisfied
19  COc1ccc(Cl)cc1C(=O)NCCc1ccc(S(=O)(=O)NC(=O)NC2CCCCC2)cc1 [Glyburide]   Not satisfied
20  Clc1ccc2c(c1)CCc1cccnc1C2=C1CCNCC1 [Desloratadine]   Not satisfied
21  COc1cc(Cc2cnc(N)nc2N)cc(OC)c1OC [Trimethoprim]       Satisfied
22  COc1ccc(-c2cc(=O)c3c(OC)c(OC)c(OC)c(OC)c3o2)cc1OC [Nobiletin]       Satisfied
23    Clc1ccccc1CN1CCc2sccc2C1 [Ticlopidine]   Not satisfied
24  CO[C@@]1(NC(=O)Cc2cccs2)C(=O)N2C(C(=O)O)=C(COC(N)=O)CS[C@@H]21 [Cefoxitin]   Not satisfied
25  COc1cc(C(=O)NC2CCCNC2)cc(OC)c1OC (configuration not stated) [Troxipide]   Not satisfied
26  CC(=O)OCC(=O)[C@@]1(O)CC[C@H]2[C@@H]3CCC4=CC(=O)C=C[C@]4(C)[C@H]3[C@@H](O)C[C@@]21C [Prednisolone acetate]   Not satisfied
27  CCCNC(=O)NS(=O)(=O)c1ccc(Cl)cc1 [Chlorpropamide]       Satisfied
28  O=C(NCCO[N+](=O)[O-])c1cccnc1 [Nicorandil]       Satisfied
29  COc1ccc([C@@H]2Sc3ccccc3N(CCN(C)C)C(=O)[C@@H]2OC(C)=O)cc1 [Diltiazem]   Not satisfied
30  CCN1CCCC1CNC(=O)c1cc(S(N)(=O)=O)ccc1OC (configuration not stated) [Sulpiride]   Not satisfied
31  COc1cc2nc(N3CCN(C(=O)C4COc5ccccc5O4)CC3)nc(N)c2cc1OC (configuration not stated) [Doxazosin]   Not satisfied
32  O=C(O)c1cc(-c2ccc(F)cc2F)ccc1O [Diflunisal]       Satisfied

###

Tested on: E18 rat cortical neuron-glia co-culture
Procedure details: myelination (MBP fiber length per Olig2+ nucleus), % of 1 µM DAPT response (DMSO = 0) (% of DAPT); higher = more myelination, active = 50 or more
Measurement context: 1 µM; treatment time: 8 days (DIV5-DIV13)
met means recorded myelination is -10 or above; not met means it is below -10.

Molecule	Classification
Cc1nc(=O)c2cc(CN(C)c3ccc(C(=O)N[C@@H](CCC(=O)O)C(=O)O)s3)ccc2[nH]1	met
Cc1ccc(C)c(OCCCC(C)(C)C(=O)O)c1	not met
Cc1cccc(C)c1NC(=O)C1CCCCN1C (stereo unspecified) [Mepivacaine]	not met
O=C(c1ccccc1)c1ccc2n1CCC2C(=O)O (stereo unspecified)	met
CC1=C(C(=O)O)N2C(=O)[C@@H](NC(=O)[C@H](N)c3ccccc3)[C@H]2SC1	met
CC(C)NCC(O)c1ccc(NS(C)(=O)=O)cc1 (stereo unspecified)	not met
COc1ccc(/C=C/C(=O)Nc2ccccc2C(=O)O)cc1OC	not met
O=C(c1ccc(OCCN2CCCCC2)cc1)c1c(-c2ccc(O)cc2)sc2cc(O)ccc12	not met
N[C@@H](C(=O)N[C@@H]1C(=O)N2C(C(=O)O)=C(CSc3c[nH]nn3)CS[C@H]12)c1ccc(O)cc1	met
CC1(C)S[C@@H]2[C@H](NC(=O)COc3ccccc3)C(=O)N2[C@H]1C(=O)O	met
CC[C@H]1OC(=O)[C@H](C)[C@@H](O[C@H]2C[C@@](C)(OC)[C@@H](O)[C@H](C)O2)[C@H](C)[C@@H](O[C@@H]2O[C@H](C)C[C@H](N(C)C)[C@H]2O)[C@](C)(O)C[C@@H](C)C(=O)[C@H](C)[C@@H](O)[C@]1(C)O	not met
O=C1[C@H](CC[C@H](O)c2ccc(F)cc2)[C@@H](c2ccc(O)cc2)N1c1ccc(F)cc1	not met
C[C@@H]1C[C@H]2[C@@H]3C[C@H](F)C4=CC(=O)C(Cl)=C[C@]4(C)[C@@]3(F)[C@@H](O)C[C@]2(C)[C@@]1(O)C(=O)CO [Halometasone hydrate]	not met
CN1CCC(=C2c3ccccc3CC(=O)c3sccc32)CC1	met
CC(=O)[C@H]1CC[C@H]2[C@@H]3C[C@H](C)C4=CC(=O)CC[C@]4(C)[C@H]3[C@@H](O)C[C@]12C	met

###

System: E18 rat cortical neuron-glia co-culture
Procedure details: fiber score / MBP score (myelination specific beyond OL differentiation) (ratio); higher = more myelination-specific MBP alignment
Measurement context: 5 µM; treatment time: 8 days (DIV5-DIV13)
criterion met means recorded fiber score / MBP score is 0.9 or above; criterion not met means it is below 0.9.

Molecule	Classification
Cc1cnc(C(=O)NCCc2ccc(S(=O)(=O)NC(=O)NC3CCCCC3)cc2)cn1 [Glipizide]	criterion not met
c1ccc2c(CC3=NCCN3)cccc2c1	criterion met
COc1ccccc1OCC(O)COC(N)=O (configuration not stated)	criterion met
CC(=O)O[C@]1(C(C)=O)CC[C@H]2[C@@H]3C[C@H](C)C4=CC(=O)CC[C@]4(C)[C@H]3CC[C@@]21C [Medroxyprogesterone acetate]	criterion not met
O=C1N(c2ccccc2)c2ccccc2C1(Cc1ccncc1)Cc1ccncc1	criterion not met
Cc1ccnc2c1NC(=O)c1cccnc1N2C1CC1	criterion not met
CO[C@H]1/C=C/O[C@@]2(C)Oc3c(C)c(O)c4c(O)c(c(/C=N/N5CCN(C)CC5)c(O)c4c3C2=O)NC(=O)/C(C)=C\C=C\[C@H](C)[C@H](O)[C@@H](C)[C@@H](O)[C@@H](C)[C@H](OC(C)=O)[C@@H]1C	criterion not met

###

Reported myelination values for a set of compounds
System: E18 rat cortical neuron-glia co-culture
Procedure details: myelination (MBP fiber length per Olig2+ nucleus), % of 1 µM DAPT response (DMSO = 0) (% of DAPT); higher = more myelination, active = 50 or more
Measurement context: 1 µM; treatment time: 8 days (DIV5-DIV13)
Counter-ions that a name gives are not always drawn.

Compound	myelination
CN1CCN(C2=Nc3ccccc3Oc3ccc(Cl)cc32)CC1	-14.9
O=c1cnn([C@@H]2O[C@H](CO)[C@@H](O)[C@H]2O)c(=O)[nH]1	-6.45
N=C(N)NC(=O)c1nc(Cl)c(N)nc1N [Amiloride]	-12.4
COc1ccc2[nH]c([S@@+]([O-])Cc3ncc(C)c(OC)c3C)nc2c1	-10.5
Nc1nc(=O)[nH]cc1F	-9.17
COc1ccc(-c2oc3c(CC=C(C)C)c(O[C@@H]4O[C@H](CO)[C@@H](O)[C@H](O)[C@H]4O)cc(O)c3c(=O)c2O[C@@H]2O[C@@H](C)[C@H](O)[C@@H](O)[C@H]2O)cc1	-14.4
C[C@]12CCC(=O)C=C1CC[C@@H]1[C@@H]2CC[C@@]2(C)[C@H]1CC[C@]2(O)C(=O)CO	-16.7
COC(=O)C1=C(C)NC(C)=C(C(=O)OC(C)C)C1c1cccc2nonc12 (configuration not stated)	-16.2
CC(=O)OCC(CCn1cnc2cnc(N)nc21)COC(C)=O	-22.4
Cc1ccccc1C(OCCN(C)C)c1ccccc1 (configuration not stated)	-7.59
CNCCCN1c2ccccc2CCc2ccccc21	-14.9
CSc1ccc2c(c1)N(CCC1CCCCN1C)c1ccccc1S2 (configuration not stated)	-11.4
CNCCC(Oc1ccc(C(F)(F)F)cc1)c1ccccc1 (configuration not stated) [Fluoxetine hydrochloride]	-1.16
Cc1cnc(NC(=O)C2=C(O)c3ccccc3S(=O)(=O)N2C)s1	-0.993
CO[C@@]1(NC(=O)Cc2cccs2)C(=O)N2C(C(=O)O)=C(COC(N)=O)CS[C@@H]21	-5.64
CC(CN1c2ccccc2Sc2ccccc21)N(C)C (configuration not stated)	-18.8
CO[C@H]1/C=C/O[C@@]2(C)Oc3c(C)c(O)c4c(c3C2=O)C2=NC3(CCN(CC(C)C)CC3)NC2=C(NC(=O)/C(C)=C\C=C\[C@H](C)[C@H](O)[C@@H](C)[C@@H](O)[C@@H](C)[C@H](OC(C)=O)[C@@H]1C)C4=O	-2.92

These data points were gathered from the supplement of paper PMC4840960.
